Sourced from patent US20180185504A1

# target: T1, human prolactin receptor (PRLR) (human, UniProt P16471 25-622)
# T1 sequence: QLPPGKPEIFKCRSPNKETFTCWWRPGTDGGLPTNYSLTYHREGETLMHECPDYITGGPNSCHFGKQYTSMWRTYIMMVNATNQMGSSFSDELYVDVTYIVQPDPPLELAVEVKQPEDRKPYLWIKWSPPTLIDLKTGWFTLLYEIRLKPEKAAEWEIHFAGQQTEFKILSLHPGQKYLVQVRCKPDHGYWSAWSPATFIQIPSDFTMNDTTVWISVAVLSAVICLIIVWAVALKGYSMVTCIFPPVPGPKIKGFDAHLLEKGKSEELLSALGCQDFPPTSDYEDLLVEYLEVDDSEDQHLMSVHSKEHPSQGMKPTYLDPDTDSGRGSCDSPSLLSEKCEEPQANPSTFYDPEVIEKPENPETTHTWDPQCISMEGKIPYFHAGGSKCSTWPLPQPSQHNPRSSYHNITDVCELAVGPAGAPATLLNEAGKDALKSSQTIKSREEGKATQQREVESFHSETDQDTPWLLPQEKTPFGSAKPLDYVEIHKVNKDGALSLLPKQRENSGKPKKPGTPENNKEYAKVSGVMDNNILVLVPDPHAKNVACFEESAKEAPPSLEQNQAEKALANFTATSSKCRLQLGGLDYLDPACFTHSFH
# test-protocol: cell-based or functional assay
Reported IC50, cell viability, T47D cells is given for each of the following binders.
Record the value in nM, omitting the unit from your answer.

{"columns": ["binder", "IC50, cell viability, T47D cells, nM"],
 "data": [
  ["H1H6975P-mc-VC-PAB-MMD (antibody, human IgG1, V domains shown, MMD conjugated through mc-VC-PAB linker; attachment residues not stated) VH: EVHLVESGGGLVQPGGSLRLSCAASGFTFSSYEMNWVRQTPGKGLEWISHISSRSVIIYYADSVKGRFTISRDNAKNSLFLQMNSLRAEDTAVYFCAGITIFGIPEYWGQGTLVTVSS VL: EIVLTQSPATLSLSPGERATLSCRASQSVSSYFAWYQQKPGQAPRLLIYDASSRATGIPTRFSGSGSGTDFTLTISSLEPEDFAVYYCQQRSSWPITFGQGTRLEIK", 3],
  ["H1H6953N-DM1 (antibody, human IgG1, V domains shown, DM1 conjugated through SMCC linker; attachment residues not stated) VH: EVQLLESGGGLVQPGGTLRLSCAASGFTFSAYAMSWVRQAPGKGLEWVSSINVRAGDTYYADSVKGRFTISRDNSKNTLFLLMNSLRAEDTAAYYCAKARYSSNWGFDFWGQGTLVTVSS VL: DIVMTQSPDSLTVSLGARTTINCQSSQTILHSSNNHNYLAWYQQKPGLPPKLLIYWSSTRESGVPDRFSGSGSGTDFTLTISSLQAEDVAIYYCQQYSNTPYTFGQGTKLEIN", 1.5],
  ["H1H6782P-mc-VC-PAB-MMD (antibody, human IgG1, V domains shown, MMD conjugated through mc-VC-PAB linker; attachment residues not stated) VH: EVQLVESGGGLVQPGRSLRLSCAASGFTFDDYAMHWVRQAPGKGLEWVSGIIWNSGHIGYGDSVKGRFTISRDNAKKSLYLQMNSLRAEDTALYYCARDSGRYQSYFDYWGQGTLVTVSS VL: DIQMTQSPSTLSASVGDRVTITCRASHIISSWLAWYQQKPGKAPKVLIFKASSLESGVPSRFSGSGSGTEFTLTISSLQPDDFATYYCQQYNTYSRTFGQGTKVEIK", 2],
  ["H1H6782P-DM1 (antibody, human IgG1, V domains shown, DM1 conjugated through SMCC linker; attachment residues not stated) VH: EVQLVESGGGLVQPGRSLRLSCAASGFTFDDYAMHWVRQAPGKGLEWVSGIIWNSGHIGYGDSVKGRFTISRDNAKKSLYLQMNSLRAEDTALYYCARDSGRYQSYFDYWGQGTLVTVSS VL: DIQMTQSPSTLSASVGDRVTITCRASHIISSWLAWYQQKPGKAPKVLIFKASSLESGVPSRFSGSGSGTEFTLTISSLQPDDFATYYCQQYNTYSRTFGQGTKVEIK", 3]
]}

The binder H1H6958N2-SPDB-DM4 (antibody, human IgG1, V domains shown, DM4 conjugated through SPDB linker; attachment residues not stated) VH: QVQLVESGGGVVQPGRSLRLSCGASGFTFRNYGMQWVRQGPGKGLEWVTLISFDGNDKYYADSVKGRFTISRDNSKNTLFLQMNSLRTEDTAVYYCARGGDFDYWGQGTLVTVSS VL: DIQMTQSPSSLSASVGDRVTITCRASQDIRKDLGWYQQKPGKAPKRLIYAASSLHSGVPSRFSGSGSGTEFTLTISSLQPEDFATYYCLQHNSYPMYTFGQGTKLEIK showed IC50, cell viability, T47D cells equal to 1
